Molecular target: Gal3S(b1-3)GalNAc
Experiment: glycan array binding signal (z-score within array); higher = stronger binding
Settings: glycan notation: IUPAC condensed, linker removed
Only a selection was taken, and the strongest signals are over-represented in it overall.
Assignment: determine reported glycan array binding signal (z-score) for the given binders.
Give bare numbers.

Completed entries (count: 2):
binder	measured
Jacalin (Artocarpus integrifolia) (protein) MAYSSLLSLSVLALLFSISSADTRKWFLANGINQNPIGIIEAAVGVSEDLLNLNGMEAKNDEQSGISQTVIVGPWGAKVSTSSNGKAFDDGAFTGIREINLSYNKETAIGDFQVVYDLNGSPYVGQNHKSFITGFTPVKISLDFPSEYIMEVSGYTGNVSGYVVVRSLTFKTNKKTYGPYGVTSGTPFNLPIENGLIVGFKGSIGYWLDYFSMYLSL	1.89
Gal 7 (Homo sapiens) (protein) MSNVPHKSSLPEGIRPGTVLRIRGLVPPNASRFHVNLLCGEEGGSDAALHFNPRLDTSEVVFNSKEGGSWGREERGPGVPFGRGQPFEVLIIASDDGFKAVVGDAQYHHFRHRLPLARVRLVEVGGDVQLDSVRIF	0.538

Req: Using known records, supply glycan array binding signal (z-score) for Ovorubin (Pomacea canaliculata), J7I2T6 (protein) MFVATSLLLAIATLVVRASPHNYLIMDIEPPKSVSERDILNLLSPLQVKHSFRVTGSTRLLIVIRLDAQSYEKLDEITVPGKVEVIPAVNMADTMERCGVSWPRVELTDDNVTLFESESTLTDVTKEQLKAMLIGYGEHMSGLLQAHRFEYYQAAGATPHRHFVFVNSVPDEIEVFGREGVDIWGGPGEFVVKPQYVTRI
Resp: 0.802
